- System: P388
- Protocol Description: Inhibitory effect on the proliferation of murine leukemia (P388) cells
- Assay type: functional
- Test Settings: Mus musculus, read-out: ID50 (the source's name)
Measured Property: IC50 (µg/mL)
The answer is to be given in µg/mL; state only the numeric part.

INSERT INTO measurements (smiles_representation, measurement) VALUES
  ('Cl.Cl.Cn1cc(NC(=O)c2cc(NC(=O)CCCCCCCCCC(=O)Nc3cc(C(=O)Nc4cc(C(=O)NCCC(=N)N)n(C)c4)n(C)c3)cn2C)cc1C(=O)NCCC(=N)N', 18);

Then this compound:
IC50 measured on "Cl.Cl.Cn1cc(NC(=O)c2cc(NC(=O)Nc3cc(C(=O)Nc4cc(C(=O)NCCC(=N)N)n(C)c4)n(C)c3)cn2C)cc1C(=O)NCCC(=N)N" = 8

* * *

- Tested on: P388
- Protocol Description: Inhibitory effect on the proliferation of murine leukemia (P388) cells
- Format: functional
- Test Settings: Mus musculus, read-out: ID50 (the source's name)
Measured Property: IC50 (µg/mL)
Form entry: value (µg/mL) — number only.

For this compound ( "Cl.Cl.Cn1cc(NC(=O)c2cc(NC(=O)CCCCCC(=O)Nc3cc(C(=O)Nc4cc(C(=O)NCCC(=N)N)n(C)c4)n(C)c3)cn2C)cc1C(=O)NCCC(=N)N" ), measured IC50 is 4.4

In plain terms, "Cl.Cl.Cn1cc(NC(=O)c2cc(NC(=O)CCCCCCCCC(=O)Nc3cc(C(=O)Nc4cc(C(=O)NCCC(=N)N)n(C)c4)n(C)c3)cn2C)cc1C(=O)NCCC(=N)N" has a documented IC50 of 0.98

* * *

- Test system: L1210
- Protocol Description: Inhibitory effect on the proliferation of murine leukemia (L1210 ) cells
- Type: functional
- Test Settings: Mus musculus, read-out: ID50 (the source's name)
Known IC50 of a selection of molecules
Report the value in µg/mL with no unit label.

INSERT INTO results (smiles_representation, measurement) VALUES
  ('Cl.Cl.Cn1cc(NC(=O)c2cc(NC(=O)CCCCCCCC(=O)Nc3cc(C(=O)Nc4cc(C(=O)NCCC(=N)N)n(C)c4)n(C)c3)cn2C)cc1C(=O)NCCC(=N)N', 10.8);

# IC50 of "Cl.Cl.Cn1cc(NC(=O)c2cc(NC(=O)CCCCCCC(=O)Nc3cc(C(=O)Nc4cc(C(=O)NCCC(=N)N)n(C)c4)n(C)c3)cn2C)cc1C(=O)NCCC(=N)N" = 3.34

* * *

- System: P388
- Protocol Description: Inhibitory effect on the proliferation of murine leukemia (P388) cells
- Format: functional
- Test Settings: Mus musculus, read-out: ID50 (the source's name)
Measured Property: IC50 (µg/mL)
Kindly answer with a numeric value in µg/mL, unit omitted.

# IC50 of "Cl.Cl.Cn1cc(NC(=O)c2cc(NC(=O)CCCCC(=O)Nc3cc(C(=O)Nc4cc(C(=O)NCCC(=N)N)n(C)c4)n(C)c3)cn2C)cc1C(=O)NCCC(=N)N" = 1.05

* * *

- System: P388
- Protocol Description: Inhibitory effect on the proliferation of murine leukemia (P388) cells
- Type: functional
- Test Settings: Mus musculus, read-out: ID50 (the source's name)
Measured Property: IC50 (µg/mL)
Provide the reading as a plain figure in µg/mL.

Per the reported P388 data, "Cl.Cl.Cn1cc(NC(=O)c2cc(NC(=O)CCCCCCCC(=O)Nc3cc(C(=O)Nc4cc(C(=O)NCCC(=N)N)n(C)c4)n(C)c3)cn2C)cc1C(=O)NCCC(=N)N" has IC50 of 0.75

For the compound "Cl.Cl.Cn1cc(NC(=O)c2cc(NC(=O)CCCCCCCCCCC(=O)Nc3cc(C(=O)Nc4cc(C(=O)NCCC(=N)N)n(C)c4)n(C)c3)cn2C)cc1C(=O)NCCC(=N)N" , the measured IC50 on P388 was 4.8

# lookup: "Cl.Cl.Cn1cc(NC(=O)c2cc(NC(=O)CCCCCCC(=O)Nc3cc(C(=O)Nc4cc(C(=O)NCCC(=N)N)n(C)c4)n(C)c3)cn2C)cc1C(=O)NCCC(=N)N" on P388, IC50 = 0.7

Param item: "Cl.Cl.Cn1cc(NC(=O)c2cc(NC(=O)CC(=O)Nc3cc(C(=O)Nc4cc(C(=O)NCCC(=N)N)n(C)c4)n(C)c3)cn2C)cc1C(=O)NCCC(=N)N" ; param system: P388; output IC50: 0.91

Entry "Cl.Cl.Cn1cc(NC(=O)c2cc(NC(=O)CCCC(=O)Nc3cc(C(=O)Nc4cc(C(=O)NCCC(=N)N)n(C)c4)n(C)c3)cn2C)cc1C(=O)NCCC(=N)N" , tested on P388, has a reported IC50 of 6.4
